# target-of-assay: Recombinant human cathepsin S (CatS) (Homo sapiens, UniProt P25774)
# Sequence (P25774 115-331): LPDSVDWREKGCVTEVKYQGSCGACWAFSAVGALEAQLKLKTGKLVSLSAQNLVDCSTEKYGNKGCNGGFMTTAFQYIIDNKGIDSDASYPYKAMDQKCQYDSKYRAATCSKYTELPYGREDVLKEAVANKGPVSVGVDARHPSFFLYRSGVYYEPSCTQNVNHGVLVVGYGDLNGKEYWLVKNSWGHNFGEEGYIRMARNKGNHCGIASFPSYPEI
# method-summary: Recombinant human cathepsin S (CatS) inhibition assay, fluorogenic substrate Z-Valine-Valine-Arginine-AMC;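 note: Baculovirus-expressed CatS in pH 5.0 sodium acetate buffer with DTT and NaCl, fluorescence read each minute over 20 min, inhibition derived from rate slope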
# condition-notes: CatS IC50
pIC50: −log10 of the molar value.
# cutoff 7 applies to pIC50; >= gives Y, < gives N

| smiles-representation | target-of-assay | group-label |
| --- | --- | --- |
| NC(=O)N1CCc2c(c(-c3ccc(Cl)c(C#Cc4ccc(CNCc5ccc(Cl)cc5)cc4)c3)nn2CCCN2CCC3(CC2)OCCO3)C1 | Recombinant human cathepsin S (CatS) (Homo sapiens, UniProt P25774) | Y |
| CS(=O)(=O)N1CCc2c(c(-c3ccc(Cl)c(C#Cc4ccc5c(c4)CN(C(=O)C(F)(F)F)C5)c3)nn2CCCN2CCOCC2)C1 | Recombinant human cathepsin S (CatS) (Homo sapiens, UniProt P25774) | N |
| C[C@H]1COCCN1CCCn1nc(-c2ccc(Cl)c(C#Cc3ccc4c(c3)CN(CC(F)(F)F)CC4)c2)c2c1CCN(S(C)(=O)=O)C2 | Recombinant human cathepsin S (CatS) (Homo sapiens, UniProt P25774) | N |
| CS(=O)(=O)N1CCc2c(c(-c3ccc(Cl)c(C#Cc4ccc(CNCc5ccc(Cl)cc5)cc4)c3)nn2CCCN2CCN(c3cccnc3)CC2)C1 | Recombinant human cathepsin S (CatS) (Homo sapiens, UniProt P25774) | Y |
| CS(=O)(=O)N1CCc2c(c(-c3ccc(Cl)c(C#Cc4cccc(CNCCCO)c4)c3)nn2CCCN2CCOCC2)C1 | Recombinant human cathepsin S (CatS) (Homo sapiens, UniProt P25774) | N |
| NC(=O)N1CCc2c(c(-c3ccc(Cl)c(C#Cc4ccc(CNCc5ccccc5F)cc4)c3)nn2CCCN2CCSCC2)C1 | Recombinant human cathepsin S (CatS) (Homo sapiens, UniProt P25774) | N |
| C[C@H]1COCCN1CCCn1nc(-c2ccc(Cl)c(C#Cc3ccc(Cl)c(C(=O)NC[C@@H]4CCNC4)c3)c2)c2c1CCN(C(=O)C(N)=O)C2 | Recombinant human cathepsin S (CatS) (Homo sapiens, UniProt P25774) | Y |
| CN(C)C(=O)[C@@H]1Cc2ccc(C#Cc3cc(-c4nn(CCCN5CCOCC5)c5c4CN(S(C)(=O)=O)CC5)ccc3Cl)cc2CN1 | Recombinant human cathepsin S (CatS) (Homo sapiens, UniProt P25774) | Y |
| C[C@H]1COCCN1CCCn1nc(-c2ccc(Cl)c(C#Cc3ccc(Cl)c(C(=O)NCCCO)c3)c2)c2c1CCN(C(=O)C(N)=O)C2 | Recombinant human cathepsin S (CatS) (Homo sapiens, UniProt P25774) | Y |
| CS(=O)(=O)N1CCc2c(c(-c3ccc(Cl)c(C#Cc4ccc(CNCc5ccc(Cl)cc5)cc4)c3)nn2CCCN2CCC(N3CCCC3=O)CC2)C1 | Recombinant human cathepsin S (CatS) (Homo sapiens, UniProt P25774) | Y |

---

# target-of-assay: Recombinant human cathepsin S (CatS) (Homo sapiens)
# method-summary: Recombinant human cathepsin S (CatS) inhibition assay, fluorogenic substrate Z-Valine-Valine-Arginine-AMC
Listed next: entries and their corresponding IC50.
reported-metric: IC50 (nM)

| molecule | target-of-assay | numeric-readout |
| --- | --- | --- |
| COC(=O)[C@@H](NCc1ccc(C#Cc2cc(-c3nn(CCCN4CCOCC4)c4c3CN(S(C)(=O)=O)CC4)ccc2Cl)cc1)c1ccccc1 | Recombinant human cathepsin S (CatS) (Homo sapiens) | 120 |
| Cc1ccc(CNCc2ccc(C#Cc3cc(-c4nn(CCCN5CCOCC5)c5c4CN(S(C)(=O)=O)CC5)ccc3Cl)cc2)cc1 | Recombinant human cathepsin S (CatS) (Homo sapiens) | 350 |
| CS(=O)(=O)N1CCc2c(c(-c3ccc(Cl)c(C#Cc4ccc(Br)cc4)c3)nn2CCCN2CCOCC2)C1 | Recombinant human cathepsin S (CatS) (Homo sapiens) | 180 |
| NC(=O)N1CCc2c(c(-c3ccc(Cl)c(C#Cc4ccc(CNCc5ccc(Cl)cc5)cc4)c3)nn2CCCN2CCN(c3ccccn3)CC2)C1 | Recombinant human cathepsin S (CatS) (Homo sapiens) | 50 |
| CS(=O)(=O)c1cccc(S(=O)(=O)NCCCc2cc(-c3nn(CCCN4CCC(N5CCCC5=O)CC4)c4c3CN(S(C)(=O)=O)CC4)ccc2Cl)c1 | Recombinant human cathepsin S (CatS) (Homo sapiens) | 2450 |
| CS(=O)(=O)N1CCc2c(c(-c3ccc(Cl)c(C#Cc4ccc(Cl)cc4)c3)nn2CC(O)CN2CCOCC2)C1 (stereo not shown) | Recombinant human cathepsin S (CatS) (Homo sapiens) | 150 |
| CS(=O)(=O)N1CCc2c(c(-c3ccc(Cl)c(C#Cc4ccc(CO)cc4)c3)nn2CCCN2CCOCC2)C1 | Recombinant human cathepsin S (CatS) (Homo sapiens) | 290 |
| CS(=O)(=O)N1CCc2c(c(-c3ccc(Cl)c(C#Cc4ccc(Cl)cc4)c3)nn2C[C@@H](O)CN2CCC(C3CCNCC3)CC2)C1 | Recombinant human cathepsin S (CatS) (Homo sapiens) | 10 |
| NC(=O)N1CCc2c(c(-c3ccc(Cl)c(C#Cc4ccc(CNCc5ccc(Cl)cc5)cc4)c3)nn2CCCN2CCSCC2)C1 | Recombinant human cathepsin S (CatS) (Homo sapiens) | 60 |
| C[C@H]1COCCN1CCCn1nc(-c2ccc(Cl)c(C#Cc3ccc(Cl)c(CN(CCO)CCO)c3)c2)c2c1CCN(C(=O)C(N)=O)C2 | Recombinant human cathepsin S (CatS) (Homo sapiens) | 30 |
| CS(=O)(=O)N1CCc2c(c(-c3ccc(Cl)c(C#Cc4ccccn4)c3)nn2CCCN2CCOCC2)C1 | Recombinant human cathepsin S (CatS) (Homo sapiens) | 1850 |
| CS(=O)(=O)N1CCc2c(c(-c3ccc(Cl)c(C#Cc4ccc(CNCc5ccc(Cl)cc5)cc4)c3)nn2CC(O)CN2CCCCC2)C1 (stereo not shown) | Recombinant human cathepsin S (CatS) (Homo sapiens) | 170 |
| NC(=O)C(=O)N1CCc2c(c(-c3ccc(Cl)c(C#Cc4ccc(Cl)c(CN5CCOCC5)c4)c3)nn2CCCN2CCCCC2)C1 | Recombinant human cathepsin S (CatS) (Homo sapiens) | 30 |

---

# target-of-assay: Recombinant human cathepsin S (CatS) (Homo sapiens)
# method-summary: Recombinant human cathepsin S (CatS) inhibition assay, fluorogenic substrate Z-Valine-Valine-Arginine-AMC
# condition-notes: CatS IC50
reported-metric: log10 of IC50 (log10 of the value in nM)

| smiles-representation | log10 of IC50 |
| --- | --- |
| NC(=O)C(=O)N1CCc2c(c(-c3ccc(Cl)c(C#Cc4ccc(Cl)c(C(=O)N5CCCC5)c4)c3)nn2CCCN2CCSCC2)C1 | 2.20 |
| CNC(=O)[C@@H]1Cc2ccc(C#Cc3cc(-c4nn(CCCN5CCOCC5)c5c4CN(S(C)(=O)=O)CC5)ccc3Cl)cc2CN1 | 1.90 |
| CC(=O)NC1CCN(CCCn2nc(-c3ccc(Cl)c(C#Cc4ccc5c(c4)CNCC5)c3)c3c2CCN(S(C)(=O)=O)C3)CC1 | 1.60 |
| CS(=O)(=O)N1CCc2c(c(-c3ccc(Cl)c(C#Cc4ccc5cc[nH]c5n4)c3)nn2CCCN2CCOCC2)C1 | 2.26 |
| CS(=O)(=O)N1CCc2c(c(-c3ccc(Cl)c(C#Cc4ccc(CNC5CCCCC5)cc4)c3)nn2CCCN2CCOCC2)C1 | 3.14 |
| CS(=O)(=O)c1ccc(CNCc2cccc(C#Cc3cc(-c4nn(CCCN5CCOCC5)c5c4CN(S(C)(=O)=O)CC5)ccc3Cl)c2)cc1 | 2.72 |
| CS(=O)(=O)N1CCc2c(c(-c3ccc(Cl)c(C#Cc4cccc(CNCc5ccccn5)c4)c3)nn2CCCN2CCOCC2)C1 | 2.18 |
| NC(=O)C(=O)N1CCc2c(c(-c3ccc(Cl)c(C#Cc4ccc(Cl)c(C(=O)N5CCCNCC5)c4)c3)nn2CCCN2CCSCC2)C1 | 2.18 |
| CS(=O)(=O)N1CCc2c(c(-c3ccc(Cl)c(C#Cc4ccc(C(=O)NC[C@@H]5CCCN5)cc4)c3)nn2CCCN2CCCCC2)C1 | 2.00 |
| NC(=O)N1CCc2c(c(-c3ccc(Cl)c(C#Cc4ccc(Cl)c(C(=O)N5CCCNCC5)c4)c3)nn2CCCN2CCSCC2)C1 | 2.23 |
| CN(Cc1ccc(Cl)cc1)Cc1ccc(C#Cc2cc(-c3nn(CCCN4CCOCC4)c4c3CN(S(C)(=O)=O)CC4)ccc2Cl)cc1 | 2.89 |
| CS(=O)(=O)N1CCc2c(c(-c3ccc(Cl)c(C#Cc4ccc(CNCc5ccc(Cl)cc5)cc4)c3)nn2CCCN2CCSCC2)C1 | 1.90 |
| O=C(CO)N1CCc2c(c(-c3ccc(Cl)c(C#Cc4ccc(CNCc5ccc(Cl)cc5)cc4)c3)nn2CCCN2CCN(c3ccccc3)CC2)C1 | 1.48 |
| C[C@H]1COCCN1CCCn1nc(-c2ccc(Cl)c(C#Cc3ccc(Cl)c(C(=O)N4CCNCC4)c3)c2)c2c1CCN(C(=O)C(N)=O)C2 | 2.15 |
| CS(=O)(=O)N1CCc2c(c(-c3ccc(Cl)c(C#Cc4ccc(CNCc5ccc(Cl)cc5)cc4)c3)nn2CCCN2CC[S+]([O-])CC2)C1 | 2.45 |
